Measured values drawn from PubChem BioAssay (NCI) for this set.

- Tested on: BT-549 breast
- procedure.summary: NCI tumour cell line growth inhibition, 48 h; in the data active = GI50 below about 0.43 µM; inactive = the rest
Possible outcomes: active, inactive

{"substance.smiles": "CC[C@H](Nc1nc(NCc2cnc(C)cc2C)c2ncn(C(C)C)c2n1)[C@@H](C)O", "system.tested": "BT-549 breast", "assigned.category": "active"}
{"substance.smiles": "COc1cc2cc(Oc3ccc(NC(=O)Nc4cccc(C(F)(F)F)c4)cc3)c(C)nc2cc1OC", "system.tested": "BT-549 breast", "assigned.category": "inactive"}
{"substance.smiles": "O=C1C(=O)c2ccccc2C(O)=C1CC=C(Br)Br", "system.tested": "BT-549 breast", "assigned.category": "inactive"}
